Experiment: NCI Yeast Anticancer Drug Screen. Data for the bub3 strain (AID 167)
Conditions: S. cerevisiae bub3 mutant strain, at 100.0 µM, hits give high values
The panel holds about 79,000 compounds, 15% with a hit somewhere; the sample as a whole holds those more often. Calls of active or inactive are those of the source. No stated cut-off is given here; in the data, active means growth inhibition above about 70%; inactive means the rest.
measurement_label: growth inhibition

CNCC(C)CNC; -50% (inactive)

Respectfully, I request growth inhibition for each entry included below.
1. c1ccc(-c2cc(C3CO3)c3ccccc3n2)cc1 (configuration not stated)
2. CCCCCCCCSC1=C(Cl)C(=O)C(OC)=C(OC)C1=O

A.
["99% (active)", "57% (inactive)"]

---

For each entry below, report its growth inhibition value.
Assay: NCI Yeast Anticancer Drug Screen. Data for the CLN2oe strain (AID 163);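 further: 0% = growth of vehicle-only control cultures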
Details: S. cerevisiae CLN2oe strain, at 1.2 µM, hits give high values
Compounds without any hit were thinned out: in the full panel of roughly 79,000, 15% have a hit.
One number for each entry, in %.

Observe how each entry below is paired with its result.
CN1CCN(C(=O)c2cccc3cccc(C(=O)O)c23)CC1; 13
COc1ccc(C2CC(C)(N3CCCC3)Oc3cc4c(cc32)OCO4)cc1 (stereo not drawn); 2
Nc1ccc(/C=C/c2ccc3cccnc3c2)cc1; 2
NC(=S)N/N=C1\c2ccccc2CCC1CCC1(O)CCc2ccccc2C1=O (stereo not drawn); 38
CC1=C(C)C(=O)C2=C(OCCO2)C1=O; 0
COc1ccc2cc3c4cc5c(cc4cc[n+]3cc2c1OC)OCO5; 13

Respectfully, I request growth inhibition for each entry included below.
1. O=C1C(=C2CCCC2)CCC1CN1CCCCC1 (stereo not drawn)
2. CCOC(=O)C(Cc1c2ccccc2cc2ccccc12)(NC(C)=O)C(=O)OCC
3. O=C1C=CC(=Nc2cccc3c2-c2ccccc2C3=O)O1
4. Cc1cccc2c1C1c3c(C)cccc3C(CC(=O)O)CC1CC2 (stereo not drawn)

A.
[-16, -3, -3, 16]

---

For each entry below, report its growth inhibition value.
Experiment: NCI Yeast Anticancer Drug Screen. Data for the sgs1 strain (AID 173);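 further: 0% = growth of vehicle-only control cultures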
Conditions: S. cerevisiae sgs1 mutant, at 33.0 µM, hits give high values
About 79,000 compounds went through this panel and 15% of them were active in at least one assay; those are over-represented in the sample as a whole.
Answers are plain numbers, in %.

Respectfully, I request growth inhibition for each entry included below.
1. COc1ccc(N=c2cc(-c3ccccc3)oc3ccccc23)cc1
2. O=C1C(CCSc2ccccc2)C(=O)N(c2ccccc2)C1c1ccccc1 (centres undefined)
3. [N-]=[N+]=NC1(c2ccccc2)C(=O)Nc2ccccc2C1=O (centres undefined)
4. CCCCCCCCNCCCCCCCC
5. S=C(NCc1ccccn1)N/N=C/c1ccccn1
6. O=C(CCCN1CCC(Nc2ccc(F)cc2)(c2nnnn2C2CCCCC2)CC1)c1ccc(F)cc1

A.
1: -3; 2: 96; 3: 27; 4: 97; 5: 99; 6: 7

Respectfully, I request growth inhibition for each entry included below.
1. Cc1ccc(Nc2n[nH]c(=S)s2)c(C)c1
2. NC(=S)N/N=C1\c2ccccc2CCC1CCC1(O)CCc2ccccc2C1=O (centres undefined)
3. Nc1ccc2cc(Br)ccc2c1Br
4. Clc1nc(Cl)nc(Nc2cccc3ccccc23)n1
5. CC1CN(/N=C\c2ccc([N+](=O)[O-])o2)C(=O)O1 (centres undefined)
6. O=C(O)C(=Cc1ccc(-c2ccccc2)cc1)C(=O)O

A.
51
82
-9
96
56
72

Respectfully, I request growth inhibition for each entry included below.
1. CNC(=O)OCc1c2ccncc2c(C)c2c1[nH]c1ccccc12
2. O=C(NO)c1coc2ccccc2c1=O
3. Nc1ccc(N=Nc2ccc(-c3ccc(O)cc3)cc2)c2ccc(S(=O)(=O)O)cc12
4. O=C1c2ccccc2C(=O)c2c(O)c(NCCNCCO)cc(O)c21
5. O=[N+]([O-])c1ccc(S(=O)(=O)Cc2ccccc2)c([N+](=O)[O-])c1

A.
1: 85; 2: -2; 3: 37; 4: 93; 5: 98

Respectfully, I request growth inhibition for each entry included below.
1. CCOC(=O)Nc1ccc(C)c(NC(=O)OCC)c1
2. C[C@H](CCC1=NC(C)(C)CO1)C1CCC2[C@@H]3C(O)C[C@@H]4CC(O)CC[C@]4(C)C3CC[C@@]21C (some centres undefined)
3. O=C1C(=C2CCCC2)CCC1CN1CCCCC1 (centres undefined)
4. CNC(=S)N/N=C(/C)CCC/C(C)=N/NC(=S)NC
5. Cc1cccc2c1C1c3c(C)cccc3C(CC(=O)O)CC1CC2 (centres undefined)
6. COc1cc(C2C3=C(COC3=O)Oc3cc4c(cc32)OCO4)cc(OC)c1O (centres undefined)
7. CN1C(=O)C(CC(=O)O)NC1=S (centres undefined)

A.
1. 20
2. 90
3. 87
4. 63
5. 96
6. 26
7. 24
